# systemUnderTest: SARS-CoV-2 full-length spike protein on pseudotyped lentivirus (SARS-CoV-2, UniProt P0DTC2 14-1273)
# runDescription: cell-based or functional assay
measurementName: IC50 (pseudoneutralization)

Notebook: anti-SARS-CoV-2 antibody 408 (antibody, V domains shown) VH: QVQLVESGGGVVQPGRSLRLSCAASGFTFSSYAMHWVRQAPGKGLEWVAVISYDGSNKYYADSVKGRFTISRDNSRNTLYLQMNSLRAEDTAVYYCAKGADTPHYSGYDFLSVGYYYYGMDVWGQGTTVTVSS VL: DIQMTQSPSSLSASVGDRVTITCRASQSISSYLNWYQQKPGKAPKLLIYAASSFQSGVPSRFSGSRSGTDFTLTISSLQPEDFATYYCQQSYSAPFTFGPGTKVDIKR , IC50 (pseudoneutralization) read as > 50 µg/mL

Data credit: patent US20210292393A1
